Values compiled from paper PMC7265341.

- TESTED TARGET: CDK8/Cyclin C (Homo sapiens)
- Sequence (P49336 whole entry): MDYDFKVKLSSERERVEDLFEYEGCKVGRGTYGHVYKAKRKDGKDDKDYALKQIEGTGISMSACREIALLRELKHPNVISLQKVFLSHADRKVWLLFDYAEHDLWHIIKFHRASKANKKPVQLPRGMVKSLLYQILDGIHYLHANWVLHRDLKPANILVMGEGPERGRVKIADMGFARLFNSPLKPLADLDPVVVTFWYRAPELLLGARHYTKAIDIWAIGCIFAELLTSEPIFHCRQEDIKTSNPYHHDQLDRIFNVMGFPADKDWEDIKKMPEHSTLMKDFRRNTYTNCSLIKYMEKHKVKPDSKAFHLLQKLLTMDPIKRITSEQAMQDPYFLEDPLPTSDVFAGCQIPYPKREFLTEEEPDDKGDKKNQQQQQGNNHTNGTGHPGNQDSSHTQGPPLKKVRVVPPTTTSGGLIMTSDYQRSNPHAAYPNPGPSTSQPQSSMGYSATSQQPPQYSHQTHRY
- Sequence (P24863 whole entry partner): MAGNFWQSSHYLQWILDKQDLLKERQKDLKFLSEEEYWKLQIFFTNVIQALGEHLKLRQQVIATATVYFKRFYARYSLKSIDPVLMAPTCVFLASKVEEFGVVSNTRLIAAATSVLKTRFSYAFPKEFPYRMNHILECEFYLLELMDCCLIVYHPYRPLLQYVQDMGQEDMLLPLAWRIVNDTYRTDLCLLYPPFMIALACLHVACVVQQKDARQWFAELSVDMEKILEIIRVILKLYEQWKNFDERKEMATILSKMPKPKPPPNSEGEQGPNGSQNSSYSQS
- ASSAY: NanoBRET live-cell target engagement, NanoLuc-CDK8/Cyclin C in HEK-293
- Assay type: binding
- ASSAY CONDITIONS: CDK8/C; 10µM; average of replicates
ENDPOINT NAME: Inhibition at 10µM (%) Average

// below: answered molecules
CC(C)c1cnn2c(NCc3ccccc3)cc(N[C@@H](CO)[C@H](O)CO)nc12 [BS-194]	25.2%
CCC(CO)Nc1nc(Nc2cccc(-c3ccccn3)c2)c2ncn(C(C)C)c2n1.Cl.O [(R) - DRF053]	2.7%
O=C(Nc1c[nH]nc1-c1ccccn1)c1nn(C2CCNCC2)cc1Cl [BDP5290]	-2.2%

The record that follows has no Inhibition at 10µM (%) Average shown yet.
Inhibition at 10µM (%) Average lookup needed for CNC1CCN(C(=O)c2ccc(Nc3ncc(F)c(-c4cnc(C)n4C(C)C)n3)cc2)C1 (stereo not shown) [AZD5597] , thanks.
95.1%
